Recorded values, source ChEMBL document CHEMBL1125363.

- SUBJECT OF TEST: Sigma non-opioid intracellular receptor 1 (Mus musculus)
- Sequence (O55242 whole entry): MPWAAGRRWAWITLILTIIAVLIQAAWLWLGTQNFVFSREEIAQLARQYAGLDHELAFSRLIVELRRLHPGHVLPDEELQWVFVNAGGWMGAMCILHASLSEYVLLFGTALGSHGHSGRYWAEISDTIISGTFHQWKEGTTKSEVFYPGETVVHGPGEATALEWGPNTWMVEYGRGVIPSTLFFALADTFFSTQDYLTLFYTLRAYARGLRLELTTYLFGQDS
- METHOD NOTES: In vitro binding affinity for the mouse sigma opioid receptor
Lab note: cut-off is 200 nM. Strictly less in Ki is TRUE. Exactly 200 nM or more is FALSE.

Query: Problem: For the molecule c1cnc(OCC2CCN(CC3CC3)CC2)nc1 , is Ki under 200 nM?
Result: FALSE

Query: Check if Ki falls below 200 nM for Cl.Fc1c(F)c(F)c(OCC2CCN(CC3CC3)CC2)c(F)c1F .
Result: TRUE

Query: Threshold test, Ki < 200 nM: CC1(CN2CCC(COc3ccc(F)cc3)CC2)CC1(Cl)Cl.O=C(O)/C=C/C(=O)O (configuration not stated)
Result: TRUE

Query: For OC(CC1CCN(CCC2CC2)CC1)c1ccc(F)cc1 (configuration not stated) , is the recorded Ki below the cut-off of 200 nM?
Result: TRUE

Query: In plain terms, does CSc1ccc(C(=O)CC2CCN(Cc3ccccc3)CC2)cc1 come in under 200 nM for Ki?
Result: TRUE

Query: Is 200 nM strictly greater than the molecule's reported Ki? molecule: C[C@@H]1CN(CCCn2c3ccccc3c3ccccc32)C[C@H](C)N1
Result: FALSE

Query: Please state whether Ki is below 200 nM for CN(C)S(=O)(=O)c1ccc(OCC2CCN(CC3CC3)CC2)cc1
Result: FALSE

---

I'd be grateful if you could share measured IC50 for these entries.
- SUBJECT OF TEST: D(2) dopamine receptor (Mus musculus)
- Sequence (P61168 whole entry): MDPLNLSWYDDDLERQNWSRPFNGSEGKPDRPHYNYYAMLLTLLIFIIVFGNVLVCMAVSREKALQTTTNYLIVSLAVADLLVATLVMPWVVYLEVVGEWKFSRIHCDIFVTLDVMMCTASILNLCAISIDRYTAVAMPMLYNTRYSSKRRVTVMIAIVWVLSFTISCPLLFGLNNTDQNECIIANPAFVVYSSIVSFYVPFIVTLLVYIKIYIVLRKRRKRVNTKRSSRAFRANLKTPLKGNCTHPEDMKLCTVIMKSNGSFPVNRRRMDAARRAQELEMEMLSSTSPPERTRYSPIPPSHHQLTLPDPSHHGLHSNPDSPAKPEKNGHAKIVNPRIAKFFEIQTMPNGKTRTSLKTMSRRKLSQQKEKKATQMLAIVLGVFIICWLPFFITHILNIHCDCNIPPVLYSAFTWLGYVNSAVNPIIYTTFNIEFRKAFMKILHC
- METHOD NOTES: In vitro binding affinity towards dopamine receptor D2

Query: I have this compound here, O.O=C(O)/C=C\C(=O)O.c1ccc(CN2CCC(COc3cccnc3)CC2)cc1 , and I need its recorded IC50.
Result: > 10 µM

Query: Could you tell me which IC50 is on file for Cl.c1ccc(CN2CCC(COC3CCCCC3)CC2)cc1 ?
Result: > 10 µM

Query: Consider the compound N#Cc1ccc(OCC2CCN(CC3CC3)CC2)cc1 and give its measured IC50.
Result: > 10 µM

---

- SUBJECT OF TEST: Serotonin 2 (5-HT2) receptor (Mus musculus, UniProt Q02152+P34968+P35363)
- METHOD NOTES: In vitro binding affinity for serotonin 5-hydroxytryptamine (5-HT) 2 receptors
- Format: protein assay
Would you mind telling me the reported Ki of each entry?

Query: Any idea what its Ki is? The compound is Cl.Fc1ccc(COCC2CCN(Cc3ccc(OCc4ccccc4)cc3)CC2)cc1
Result: < 100 nM

Query: Item CC(=O)c1ccc(OCC2CCN(CC3CC3)CC2)cc1 has what recorded Ki?
Result: > 1000 nM

Query: For the compound O.c1ccc(-c2ccc(OCC3CCN(CC4CC4)CC3)cc2)cc1 , what Ki is on record?
Result: > 10000 nM

---

- Organism: Mus musculus
- METHOD NOTES: Oral potency tested by using anti-mescaline test
- Format: functional
For each entry below, report its ED50 value.

Query: Which measured ED50 value corresponds to CC1CC1CN1CCC(COc2ccc(F)cc2)CC1.O=C(O)/C=C\C(=O)O (stereo not given) ?
Result: > 10 mg/kg

Query: Entry Cl.c1ccc(OCC2CCN(CC3CC3)CC2)nc1 has what ED50?
Result: > 30 mg/kg

Query: For the compound shown here, O.OC(CC1CCN(Cc2ccccc2)CC1)c1ccco1 (stereo not given) , give the reported ED50.
Result: > 30 mg/kg

Query: Entry CS(=O)(=O)c1ccc(C(=O)CC2CCN(Cc3ccccc3)CC2)cc1 has what ED50?
Result: > 30 mg/kg

Query: Request the reported ED50 associated with O.OC(CC1CCN(Cc2ccccc2)CC1)c1ccc2ccccc2c1 (stereo not given)
Result: > 10 mg/kg

Query: Given O.OC(CC1CCN(Cc2ccccc2)CC1)c1cccs1 (stereo not given) , state its recorded ED50.
Result: > 30 mg/kg

Query: What ED50 value was documented for this compound, COc1ccc(OCC2CCN(Cc3ccccc3)CC2)cc1 ?
Result: > 30 mg/kg

Query: Item under review: CSc1ccc(C(=O)CC2CCN(Cc3ccccc3)CC2)cc1 . Reported ED50?
Result: > 30 mg/kg

Query: Given c1ccc(Oc2ccc(OCC3CCN(CC4CC4)CC3)cc2)cc1 , state its recorded ED50.
Result: > 30 mg/kg

Query: Value lookup for ED50; key = COc1ccc(C(O)CC2CCN(Cc3ccccc3)CC2)cc1.Cl (stereo not given)
Result: > 30 mg/kg
